Reference source for all entries: PubChem BioAssay (EPA / NIEHS)

- Read-out: Human Leukocyte Antigen - DR isotype (HLADR), HLA-DRA (gene 3122)
- Assay Protocol: BSK_3C_HLADR: BioMAP Diversity Plus: 3C Assay for Human Leukocyte Antigen - DR isotype (HLADR) Biomarker Activity (AID 2283019)
- Recorded Conditions: primary human endothelial cells (HUVEC); actives raise or lower the signal
The source made the active and inactive calls. How the source made its calls: active means hit-call score of the fitted dose curve at least 0.9, where 1 is the maximum; inactive means score below 0.9.
Pick from T for active, F for inactive when you respond.

Exercise: Record request — test call for `S=P(N1CC1)(N1CC1)N1CC1`
Solution: F

Exercise: Fill in: this test's call for `CCCCCCCCCCCCCCCCOS(=O)(=O)O` is ___
Solution: F

Exercise: Short answer needed: outcome of this test for `CCCCCCCCN(C)C` ?
Solution: F

Exercise: Test call, this molecule: `CCCc1ccccc1`
Solution: F

Exercise: What outcome does the record of this test show for `CC[C@H](C)C(=O)O[C@H]1C[C@H](O)C=C2C=C[C@H](C)[C@H](CC[C@@H](O)C[C@@H](O)CC(=O)O)[C@H]21` ?
Solution: F

Exercise: Give the logged outcome of this assay for the following molecule: `CC(C)C(=O)Nc1ccc([N+](=O)[O-])c(C(F)(F)F)c1`
Solution: T

Exercise: Could you kindly confirm the outcome this assay logged for `CCOC(N)=O` ?
Solution: F

Exercise: I would be grateful if you could indicate the recorded call for `Cc1nc(-c2ccccn2)ncc1C(=O)Nn1cc(C)c2cc(F)ccc21` .
Solution: T

Exercise: What call does the record list for `OCCC(F)(F)C(F)(F)C(F)(F)C(F)(F)F` ?
Solution: F

Exercise: Could you please tell me the result logged for `Cc1ccc(S(=O)(=O)NC(=O)NN2CCCCCC2)cc1` in this assay?
Solution: F

Exercise: State the result this test recorded for `OC(CCl)CCl` .
Solution: F

Exercise: What classification did `CCCCCCCCCC` end up with in this test?
Solution: F

Exercise: Please state the recorded outcome for this molecule: `Cn1cc[nH]c1=S`
Solution: F

Exercise: Returns: the outcome recorded for `O=S1(=O)CCCO1` in this assay.
Solution: F
